Assay: Conditional Cu
Type: binding
Details: conditional, universal buffer pH 7.4, competition with PAR
REPORTED_ENDPOINT: Cu(II) log KML2
Numbers only.

COMPOUND_STRUCTURE | Cu(II) log KML2
Cc1c(O)c(=O)ccn1C | 15.3

We next turn to a different molecule, shown below.
Param item = Cc1occc(=O)c1O ; retrieve measured Cu(II) log KML2.
12.2

---

I'd be grateful if you could share measured pCu(II) for these entries.
Experiment: Conditional Cu
Format: binding
Details: negative log of free [Cu] at pH 7.4, total ligand 10 μM, total Cu 1 μM
Numbers only.

COMPOUND_STRUCTURE | REPORTED_ENDPOINT | RESULT
Cc1c(O)c(=O)ccn1C | pCu(II) | 11.1

We next turn to a different compound, shown below.
Param item = Cc1occc(=O)c1O ; retrieve measured pCu(II).
8.0
